tested on: Clostridium perfringens; experiment: Antibacterial activity against Clostridium perfringens assessed as zone of inhibition at 500 ug/ml after 24 hrs by agar diffusion method; format: functional; conditions: read-out: IZ
molecules and their reported zone of inhibition at 500 µg/mL
Report the value in mm with no unit label.

The cases that follow already have their zone of inhibition at 500 µg/mL on record.
Prompt line: With Clostridium perfringens as the test system, provide measured zone of inhibition at 500 µg/mL for this molecule: c1ccc(-c2ccc(-c3n[nH]cc3-c3nc(-c4ccccc4)c(-c4ccccc4)[nH]3)cc2)cc1
Response line: 1

Prompt line: Retrieve zone of inhibition at 500 µg/mL on Clostridium perfringens; query Brc1ccc(-c2nc(-c3c[nH]nc3-c3ccc(-c4ccccc4)cc3)[nH]c2-c2ccc(Br)cc2)cc1
Response line: 1

Prompt line: Fetch value of zone of inhibition at 500 µg/mL on Clostridium perfringens for Clc1cc(-c2n[nH]cc2-c2nc(-c3ccccc3)c(-c3ccccc3)[nH]2)c(Cl)s1 .
Response line: 7

Prompt line: Check Clostridium perfringens data and give zone of inhibition at 500 µg/mL for Cc1ccc(-c2n[nH]cc2-c2nc(-c3ccc(Br)cc3)c(-c3ccc(Br)cc3)[nH]2)cc1 .
Response line: 2

In the following, a different molecule is considered.
Prompt line: Write down measured zone of inhibition at 500 µg/mL (Clostridium perfringens) for this molecule. COC(=O)/C=C1/C(=O)NC(=S)N1/N=C/c1c[nH]nc1-c1ccc(SC)cc1
Response line: 15

====

Each entry below lists one item and its recorded zone of inhibition at 1000 µg/mL value.
tested on: Bacillus subtilis; assay: Antibacterial activity against Bacillus subtilis assessed as zone of inhibition at 1000 ug/ml after 24 hrs by agar diffusion method; type: functional; settings: read-out: IZ

Consider the reported zone of inhibition at 1000 µg/mL for these compounds:
Prompt line: Under Bacillus subtilis: report zone of inhibition at 1000 µg/mL of CSc1ccc(-c2n[nH]cc2-c2nc(-c3ccccc3)c(-c3ccccc3)[nH]2)cc1 .
Response line: 5 mm

Prompt line: Report value only: zone of inhibition at 1000 µg/mL, Bacillus subtilis, Clc1ccc(-c2n[nH]cc2-c2nc(-c3ccc(Br)cc3)c(-c3ccc(Br)cc3)[nH]2)c(Cl)c1
Response line: 5 mm

Prompt line: Write down measured zone of inhibition at 1000 µg/mL (Bacillus subtilis) for this compound. Cc1ccc(-c2n[nH]cc2-c2nc(-c3ccccc3)c(-c3ccccc3)[nH]2)cc1
Response line: 8 mm

Next:
Prompt line: Send back Bacillus subtilis zone of inhibition at 1000 µg/mL of COC(=O)/C=C1/C(=O)NC(=S)N1/N=C/c1c[nH]nc1-c1cc(Cl)sc1Cl only.
Response line: 8 mm

Prompt line: // fetch zone of inhibition at 1000 µg/mL; item: CSc1ccc(-c2n[nH]cc2-c2nc(-c3ccc(Br)cc3)c(-c3ccc(Br)cc3)[nH]2)cc1 ; system: Bacillus subtilis
Response line: 5 mm

====

test system: Bacillus subtilis; assay: Antibacterial activity against Bacillus subtilis assessed as zone of inhibition at 500 ug/ml after 24 hrs by agar diffusion method; type: functional; conditions: read-out: IZ
Endpoint: zone of inhibition at 500 µg/mL

The following compounds have reported results that may help.
Prompt line: Dear colleague, please send me the reported zone of inhibition at 500 µg/mL for COC(=O)/C=C1/C(=O)NC(=S)N1/N=C/c1c[nH]nc1-c1cc(Cl)sc1Cl when you can.
Response line: 7 mm

Prompt line: Could you please provide reported zone of inhibition at 500 µg/mL for COC(=O)/C=C1/C(=O)NC(=S)N1/N=C/c1c[nH]nc1-c1ccc(C)cc1 ? Thanks!
Response line: 8 mm

Prompt line: Check the records and state zone of inhibition at 500 µg/mL for c1ccc(-c2ccc(-c3n[nH]cc3-c3nc(-c4ccccc4)c(-c4ccccc4)[nH]3)cc2)cc1
Response line: 2 mm

***
Prompt line: Give zone of inhibition at 500 µg/mL for CSc1ccc(-c2n[nH]cc2-c2nc(-c3ccc(Br)cc3)c(-c3ccc(Br)cc3)[nH]2)cc1
Response line: 4 mm

Prompt line: Give the reported zone of inhibition at 500 µg/mL for this compound. COC(=O)/C=C1/C(=O)NC(=S)N1/N=C/c1c[nH]nc1-c1ccc(SC)cc1
Response line: 9 mm

Prompt line: Please list zone of inhibition at 500 µg/mL recorded for the compound Brc1ccc(-c2nc(-c3c[nH]nc3-c3ccc(-c4ccccc4)cc3)[nH]c2-c2ccc(Br)cc2)cc1
Response line: 3 mm

Prompt line: Please list zone of inhibition at 500 µg/mL recorded for the compound COC(=O)/C=C1/C(=O)NC(=S)N1/N=C/c1c[nH]nc1-c1ccc(Cl)cc1Cl
Response line: 7 mm

Prompt line: Report zone of inhibition at 500 µg/mL for CN[C@@H]1[C@H](O[C@H]2[C@H](O[C@H]3[C@H](O)[C@@H](O)[C@H](N=C(N)N)[C@@H](O)[C@@H]3N=C(N)N)O[C@@H](C)[C@]2(O)C=O)O[C@@H](CO)[C@H](O)[C@H]1O [STREPTOMYCIN]
Response line: 11 mm

====

test system: Bacillus subtilis; experiment: Antibacterial activity against Bacillus subtilis assessed as zone of inhibition at 1000 ug/ml after 24 hrs by agar diffusion method; format: functional; conditions: read-out: IZ
Endpoint: zone of inhibition at 1000 µg/mL (mm)
Express your answer in mm, writing the number without its unit.

Prompt line: Fill in reported zone of inhibition at 1000 µg/mL for this entry: Clc1cc(-c2n[nH]cc2-c2nc(-c3ccccc3)c(-c3ccccc3)[nH]2)c(Cl)s1
Response line: 4

Prompt line: Specify reported zone of inhibition at 1000 µg/mL for the compound shown: COC(=O)/C=C1/C(=O)NC(=S)N1/N=C/c1c[nH]nc1-c1ccc(SC)cc1
Response line: 10

Prompt line: Report zone of inhibition at 1000 µg/mL for Clc1cc(-c2n[nH]cc2-c2nc(-c3ccc(Br)cc3)c(-c3ccc(Br)cc3)[nH]2)c(Cl)s1
Response line: 2

Prompt line: Query zone of inhibition at 1000 µg/mL for CN[C@@H]1[C@H](O[C@H]2[C@H](O[C@H]3[C@H](O)[C@@H](O)[C@H](N=C(N)N)[C@@H](O)[C@@H]3N=C(N)N)O[C@@H](C)[C@]2(O)C=O)O[C@@H](CO)[C@H](O)[C@H]1O
Response line: 21

--- query ---
Prompt line: Identify zone of inhibition at 1000 µg/mL associated with the compound Cc1ccc(-c2n[nH]cc2-c2nc(-c3ccc(Br)cc3)c(-c3ccc(Br)cc3)[nH]2)cc1
Response line: 4
